test: Pharmacokinetic study in rats after i.v. administration (HPLC-UV/VIS of plasma, non-compartmental analysis); format: in vivo, male Sprague Dawley rats; conditions: male, Sprague Dawley, rat, plasma, iv, i.v. 10 mg/kg, n = 6, mean ± SD, non-compartmental analysis, read-out: T1/2 (half-life)

# SMILES TEXT, half-life / h
rows = [
    ("COc1cc(C=C2CCCC(=Cc3ccc(O)c(OC)c3)C2=O)ccc1O", 1.5),
]

====

test: Pharmacokinetic study in rats after i.v. administration (HPLC-UV/VIS of plasma, non-compartmental analysis); assay type: in vivo, male Sprague Dawley rats; details: male, Sprague Dawley, rat, plasma, iv, i.v. 10 mg/kg, n = 6, mean ± SD, non-compartmental analysis, read-out: Vd (volume of distribution)
MEASURED PARAMETER: Vd (L)

# SMILES TEXT, UNITS SYMBOL, MEASURED
records = [
    ("COc1cc(C=C2CCCC(=Cc3ccc(O)c(OC)c3)C2=O)ccc1O", "L", 0.69),
]

====

test: Pharmacokinetic study in rats after i.v. administration (HPLC-UV/VIS of plasma, non-compartmental analysis); assay type: in vivo, male Sprague Dawley rats; conditions: male, Sprague Dawley, rat, plasma, iv, i.v. 10 mg/kg, n = 6, mean ± SD, non-compartmental analysis

# SMILES TEXT, AUC(0-t) [ng·h/mL]
rows = [
    ("COc1cc(C=C2CCCC(=Cc3ccc(O)c(OC)c3)C2=O)ccc1O", 937),
]

====

assay: Pharmacokinetic study in rats after i.v. administration (HPLC-UV/VIS of plasma, non-compartmental analysis); type: in vivo, male Sprague Dawley rats; settings: male, Sprague Dawley, rat, plasma, iv, i.v. 10 mg/kg, n = 6, mean ± SD, non-compartmental analysis

# SMILES TEXT, UNITS SYMBOL, AUC(0-inf)
rows = [
    ("COc1cc(C=C2CCCC(=Cc3ccc(O)c(OC)c3)C2=O)ccc1O", "ng·h/mL", 989),
]
